Hi there, I'd appreciate the recorded kon for every entry that follows.
target: T1, MUC16 peptide-2 glycopeptide (human, also: glycopeptide, glycan and its site not given here); assay: SPR, BIAcore X100, peptide-2 glycopeptide over antibody captured by anti-IgG
T1 peptide: TLDRSSVLVDGYSPNRNE
Where no end group is shown, it is not given here.
Record the value in M⁻¹ s⁻¹, omitting the unit from your answer.

Fill blank: measured kon of the binder 18C6 H2L1 humanized antibody (antibody, human IgG1, kappa, V domains shown) VH: QVTLKESGPTLVKPTQTLTLTCTFSGFSLSTVGMGVGWSRQPSGKGLEWLAHIWWDDEDKYYNPALKSRLTITKDTSKNQVVLTITNVDPVDTATYYCTRIGTAQATDALDYWGQGTLVTVSS VL: DIVMTQSAPSVPVTPGESVSISCRSSKSLLHSNGNTYLYWFLQKPGQSPQRLIYYMSNLASGVPDRFSGRGSGTDFTLKISRVEAEDVGVYYCMQSLEYPLTFGGGTKLEIKR is ____.
549000

Fill blank: measured kon of the binder 18C6 H1L1 humanized antibody (antibody, human IgG1, kappa, V domains shown, also called H1L1 humanized 18C6 antibody) VH: QVTLKESGPGILQPTQTLTLTCTFSGFSLSTVGMGVGWSRQPSGKGLEWLAHIWWDDEDKYYNPALKSRLTITKDTSKNQVFLKITNVDTADTATYYCTRIGTAQATDALDYWGQGTLVTVSS VL: DIVMTQSAPSVPVTPGESVSISCRSSKSLLHSNGNTYLYWFLQKPGQSPQRLIYYMSNLASGVPDRFSGRGSGTDFTLKISRVEAEDVGVYYCMQSLEYPLTFGGGTKLEIKR is ____.
287000

Fill blank: measured kon of the binder 18C6 H2L2 humanized antibody (antibody, human IgG1, kappa, V domains shown) VH: QVTLKESGPTLVKPTQTLTLTCTFSGFSLSTVGMGVGWSRQPSGKGLEWLAHIWWDDEDKYYNPALKSRLTITKDTSKNQVVLTITNVDPVDTATYYCTRIGTAQATDALDYWGQGTLVTVSS VL: DIVMTQSALSLPVTPGEPVSISCRSSKSLLHSNGNTYLYWFLQKPGQSPQRLIYYMSNLASGVPDRFSGSGSGTDFTLKISRVEAEDVGVYYCMQSLEYPLTFGGGTKLEIKR is ____.
433000

Where do the numbers come from? From patent US20220235143A1.
